Where do these numbers come from? They come from the supplement of paper PMC10567573.

B1: TRIM43 (parent)
chain: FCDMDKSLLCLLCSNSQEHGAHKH

- Variants of: B1
- measurement-notes: protein stability index of a GFP-peptide fusion (GPS, HEK-293T) (PSI 1-6); higher = more stable;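 note: lentivirally expressed fusions sorted by FACS into six bins by GFP to DsRed ratio, PSI derived from sequencing read proportions per bin multiplied by bin number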
- condition-set: c terminus: a fixed tail appended
protein stability index vs 2: at or above is Condition met, below is Condition not met.

# count of solved cases: 5
mutation-list: S16M
label-class: Condition met

mutation-list: H24Q
label-class: Condition met

mutation-list: C13Y
label-class: Condition not met

mutation-list: M4A
label-class: Condition met

mutation-list: F1V
label-class: Condition met

Entry F1C : is its protein stability index no less than 2? Condition met

Moving on to the next variant: C2E Condition met
